target: fatty acyl CoA:cholesterol acyl transferase (ACAT) (Rattus norvegicus, UniProt O70536); construct: The supernatant, containing the microsomal fraction, served as the source of the cholesterol-esterifying enzyme; from tissue; host or cells: rat adrenals, homogenate supernatant (1,000 x g) containing the microsomal fraction; test: Inhibition of enzymatic esterification of cholesterol (ACAT) in rat adrenal supernatant containing the microsomal fraction; format: biochemical; details: final concentration of test compound 5.2 μg./ml., 14C-oleoyl CoA, 37° C., read-out: % INHIBITION (percent inhibition of the ACAT enzyme as compared to control values)
Sequence (O70536 whole entry): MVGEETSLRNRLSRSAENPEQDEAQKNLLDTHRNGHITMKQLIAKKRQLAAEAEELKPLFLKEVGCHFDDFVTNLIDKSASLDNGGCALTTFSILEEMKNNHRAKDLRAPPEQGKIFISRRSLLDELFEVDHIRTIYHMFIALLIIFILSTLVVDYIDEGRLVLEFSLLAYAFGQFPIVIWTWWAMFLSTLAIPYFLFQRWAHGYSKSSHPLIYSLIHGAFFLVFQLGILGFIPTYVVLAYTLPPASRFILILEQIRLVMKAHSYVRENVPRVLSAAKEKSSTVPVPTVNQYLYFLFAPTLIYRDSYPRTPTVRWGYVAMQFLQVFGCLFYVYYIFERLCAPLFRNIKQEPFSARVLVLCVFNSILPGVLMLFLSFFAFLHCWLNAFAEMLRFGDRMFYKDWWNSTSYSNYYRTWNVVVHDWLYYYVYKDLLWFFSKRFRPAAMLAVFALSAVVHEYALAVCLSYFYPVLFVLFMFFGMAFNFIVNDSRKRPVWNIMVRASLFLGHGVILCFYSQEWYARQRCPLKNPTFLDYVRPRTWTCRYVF
measurement_kind: inhibition at 5.2 µg/mL (%)

Below, 3 compounds whose answers are already recorded.
In [3]: df
Out[3]:
                                   compound         measurement_kind  assay_value
0  CCOC(=O)c1ccc(NC(=O)CC2c3ccccc3Sc3ccccc32)cc1  inhibition at 5.2 µg/mL            9
1  O=C(C=C1c2ccccc2C=Cc2ccccc21)Nc1ccc(C(=O)O)cc1  inhibition at 5.2 µg/mL           47
2  O=C(CC1c2ccccc2Sc2ccccc21)Nc1ccc(C(=O)O)cc1 [4-[Thioxanthene-9-acetamido]benzoic acid]  inhibition at 5.2 µg/mL           37

P. O=C(C=C1c2ccccc2CCc2ccccc21)Nc1ccc(C(=O)O)cc1
Q. CCOC(=O)c1ccc(NC(=O)C=C2c3ccccc3C=Cc3ccccc32)cc1
Return label of the item with the larger inhibition at 5.2 µg/mL. Candidates: P , Q . Reply with the label of the item you choose.
P
(P: 51%, Q: 20%)
